# Lookup of reported EC50 keyed by entry
experimental system: human activated kallikrein enzyme (Homo sapiens, UniProt P03952)
Sequence (P03952 391-638 limits assumed): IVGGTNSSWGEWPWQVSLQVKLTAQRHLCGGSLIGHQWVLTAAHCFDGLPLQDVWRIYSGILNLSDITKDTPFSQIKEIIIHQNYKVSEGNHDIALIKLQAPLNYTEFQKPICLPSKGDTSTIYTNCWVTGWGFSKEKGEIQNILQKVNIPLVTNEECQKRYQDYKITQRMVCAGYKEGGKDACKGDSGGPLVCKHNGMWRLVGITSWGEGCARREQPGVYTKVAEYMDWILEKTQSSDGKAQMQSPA
Sequence (P03952 20-390 partner limits assumed): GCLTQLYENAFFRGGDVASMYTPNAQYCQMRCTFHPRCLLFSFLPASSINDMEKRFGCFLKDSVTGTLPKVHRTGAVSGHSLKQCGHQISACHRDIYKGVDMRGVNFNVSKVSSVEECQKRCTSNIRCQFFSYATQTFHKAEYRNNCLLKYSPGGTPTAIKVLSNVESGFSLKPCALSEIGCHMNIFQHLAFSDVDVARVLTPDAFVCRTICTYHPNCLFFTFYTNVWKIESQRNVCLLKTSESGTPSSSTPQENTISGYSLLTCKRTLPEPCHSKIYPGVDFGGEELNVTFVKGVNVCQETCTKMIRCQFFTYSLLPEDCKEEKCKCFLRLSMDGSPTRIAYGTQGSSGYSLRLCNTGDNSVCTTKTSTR
assay procedure: Inhibition of human activated plasma kallikrein, fluorogenic PFR-AMC substrate, 500 pM enzyme format
Assay type: biochemical
condition set: 500 pM activated kallikrein; 300 μM PFR-AMC; 30 min preincubation; 10 min room temperature; pH 7.5; read-out: Primary Dose Response Assay: Average EC50

[
  {
    "compound": "CCOC(=O)[C@@H]1[C@@H]2CN(C(=O)Cc3ccc(Cn4cc(C(=O)NCc5c(C)cc6c(N)nccc6c5C)cn4)cc3)C[C@@H]21 [Example 211]",
    "experimental system": "human activated kallikrein enzyme (Homo sapiens, UniProt P03952)",
    "EC50": "< 1 nM"
  },
  {
    "compound": "CCOC(=O)c1nc(NCc2c(C)cc3c(N)nccc3c2C)cc(OCc2cn3cc(C4CC4)cnc3n2)n1 [Example 489]",
    "experimental system": "human activated kallikrein enzyme (Homo sapiens, UniProt P03952)",
    "EC50": "< 1 nM"
  },
  {
    "compound": "Cc1cc2c(N)nccc2c(C)c1CNC(=O)c1cnn(Cc2cn3c(C#N)cccc3n2)c1 [Example 143]",
    "experimental system": "human activated kallikrein enzyme (Homo sapiens, UniProt P03952)",
    "EC50": "< 1 nM"
  },
  {
    "compound": "Cc1cc2c(N)nccc2c(C)c1CNc1cc(OCc2ccc(Cc3cccn4ccnc34)cc2)cnn1 [Example 444]",
    "experimental system": "human activated kallikrein enzyme (Homo sapiens, UniProt P03952)",
    "EC50": "< 1 nM"
  },
  {
    "compound": "Cc1cc2c(N)nccc2c(C)c1CNC(=O)c1cnn(Cc2ccc3ncccc3n2)c1 [Example 150]",
    "experimental system": "human activated kallikrein enzyme (Homo sapiens, UniProt P03952)",
    "EC50": "10 to 100 nM"
  },
  {
    "compound": "Cc1cc2c(N)nccc2c(C)c1CNC(=O)c1cnn(Cc2ccc3cccc(Br)c3n2)c1 [Example 159]",
    "experimental system": "human activated kallikrein enzyme (Homo sapiens, UniProt P03952)",
    "EC50": "10 to 100 nM"
  },
  {
    "compound": "Cc1ccc2cc(Cn3ccc4nnc(NCc5c(C)cc6c(N)nccc6c5C)cc43)ccc2n1 [Example 515]",
    "experimental system": "human activated kallikrein enzyme (Homo sapiens, UniProt P03952)",
    "EC50": "< 1 nM"
  },
  {
    "compound": "Cc1cc2c(N)nccc2c(C)c1CNC(=O)c1cnn(Cc2ncccn2)c1 [Example 83]",
    "experimental system": "human activated kallikrein enzyme (Homo sapiens, UniProt P03952)",
    "EC50": "100 to 1000 nM"
  }
]
